Source of measurements: patent US12144808B2

Assay: Example 1B: SC and SL pharmacokinetics in dogs with metabolite analysis
Format: in vivo
Details: male, beagle, dog, plasma, SL, 1 mg/kg, analyte parent
From the text: SC Administration: Six male beagle dogs between 2 and 5 years of age are randomized in two groups of three dogs each. […] Administration is subcutaneous in the intrascapular region via a 22 or 23 gauge needle. […] Following a minimum 7-day washout period, the dogs are transferred to the sublingual portion of the study. SL Administration: […] […] All blood samples are processed to plasma and analyzed for drug concentrations using liquid chromatography-tandem mass spectrometry (LC-MS/MS). […]
measurement-name: Tmax (h)
Numbers only, in h.

line-notation: CN1CCN2c3c(cccc31)[C@@H]1CN(CCCC(=O)c3ccc(F)cc3)CC[C@@H]12
Tmax (h): 1

Moving on to the next compound.
Please report the measured Tmax for [2H]C1([2H])CN2c3c(cccc3N1C)[C@@H]1CN(CCCC(=O)c3ccc(F)cc3)CC[C@@H]12
1

----------
Could you please report measured Cmax for the items listed next?
Experiment: Example 1B: SC and SL pharmacokinetics in dogs with metabolite analysis
Format: in vivo
Conditions: male, beagle, dog, plasma, SL, 1 mg/kg, analyte parent
One number for each entry, in ng/mL.

line-notation: [2H]C1([2H])CN2c3c(cccc3N1C)[C@@H]1CN(CCCC(=O)c3ccc(F)cc3)CC[C@@H]12
Cmax (ng/mL): 562

Moving on to the next compound.
Please report the measured Cmax for CN1CCN2c3c(cccc31)[C@@H]1CN(CCCC(=O)c3ccc(F)cc3)CC[C@@H]12
179
